Catalogue of proteins with associated Km
Substrate: CC(=O)SCCNC(=O)CCNC(=O)[C@H](O)C(C)(C)COP(=O)(O)OP(=O)(O)OC[C@H]1O[C@@H](n2cnc3c(N)ncnc32)[C@H](O)[C@@H]1OP(=O)(O)O
Assay: discontinuous HPLC assay
Format: biochemical, Caulobacter vibrioides
Details: pH 8.0, 25 °C, GDP-perosamine co-substrate
readout label: Km (µM)

protein	number
PerB (Caulobacter vibrioides; H141A) (protein) MSASLAIGGVVIIGGGGHAKVVIESLRACGETVAAIVDADPTRRAVLGVPVVGDDLALPMLREQGLSRLFVAIGDNRLRQKLGRKARDHGFSLVNAIHPSAVVSPSVRLGEGVAVMAGVAINADSWIGDLAIINTGAVVDADCRLGAACHLGPASALAGGVSVGERAFLGVGARVIPGVTIGADTIVGAGGVVVRDLPDSVLAIGVPAKIKGDRS	110
PerB (Caulobacter vibrioides) (protein) MSASLAIGGVVIIGGGGHAKVVIESLRACGETVAAIVDADPTRRAVLGVPVVGDDLALPMLREQGLSRLFVAIGDNRLRQKLGRKARDHGFSLVNAIHPSAVVSPSVRLGEGVAVMAGVAINADSWIGDLAIINTGAVVDHDCRLGAACHLGPASALAGGVSVGERAFLGVGARVIPGVTIGADTIVGAGGVVVRDLPDSVLAIGVPAKIKGDRS	150
PerB (Caulobacter vibrioides; D142N) (protein) MSASLAIGGVVIIGGGGHAKVVIESLRACGETVAAIVDADPTRRAVLGVPVVGDDLALPMLREQGLSRLFVAIGDNRLRQKLGRKARDHGFSLVNAIHPSAVVSPSVRLGEGVAVMAGVAINADSWIGDLAIINTGAVVDHNCRLGAACHLGPASALAGGVSVGERAFLGVGARVIPGVTIGADTIVGAGGVVVRDLPDSVLAIGVPAKIKGDRS	59
PerB (Caulobacter vibrioides; H141N) (protein) MSASLAIGGVVIIGGGGHAKVVIESLRACGETVAAIVDADPTRRAVLGVPVVGDDLALPMLREQGLSRLFVAIGDNRLRQKLGRKARDHGFSLVNAIHPSAVVSPSVRLGEGVAVMAGVAINADSWIGDLAIINTGAVVDNDCRLGAACHLGPASALAGGVSVGERAFLGVGARVIPGVTIGADTIVGAGGVVVRDLPDSVLAIGVPAKIKGDRS	94
